- Tested on: LOX IMVI
- Measurement Notes: NCI tumour cell line growth inhibition, 48 h
Calls of active or inactive are those of the source. No stated cut-off is given here; in the data, active = GI50 up to about 1.1 µM and inactive = higher.
Thanks in advance; please answer with one of these: active, inactive

Prompt: Called result for CCOC(=O)C1S/C(=N\C(=N)N[N+](=O)[O-])N=C1C (stereo unspecified)
Response: inactive

Prompt: Per the assay record, what outcome was assigned to CC1C/C(=C\c2ccc(OC(=O)C(C)(C)C)cc2)C(=O)/C(=C/c2ccc(OC(=O)C(C)(C)C)cc2)C1 (stereo unspecified) ?
Response: inactive

Prompt: Write down the call the test reported for this molecule. Item: N#C/C(=C\NC(=S)c1ccncc1)c1nc2ccccc2s1
Response: inactive

Prompt: Could you please tell me the result logged for O=C1/C(=C/c2ccc(Cl)cc2)CCCc2ccccc21 in this assay?
Response: inactive

Prompt: What did this assay record as the result for O=S(=O)(N/N=C\c1c2ccccc2[n+]([O-])c2ccccc12)c1ccc(Cl)cc1 ?
Response: inactive

Prompt: Tell me the recorded outcome of this test for CC(=S)NC1C(Oc2ccc3c(C)cc(=O)oc3c2)OC(CO)C(O)C1O (stereo unspecified) .
Response: inactive

Prompt: Kindly provide the recorded test outcome for the following molecule: COc1c(OC)c(OC)c(-c2cc(=O)c3c(OC)c(OC)c(OC)c(OC)c3o2)c(OC)c1OC
Response: inactive

Prompt: Test call, this molecule: O=C(O)C1C(C(=O)O)C2C(=O)C=CC1N2Cc1ccccc1 (stereo unspecified)
Response: inactive

Prompt: Per the records of this test, what outcome belongs to O=C(c1ccccc1)C(c1ccccc1)C1(O)C(=O)Nc2c(Cl)cc(Cl)cc21 (stereo unspecified) ?
Response: inactive

Prompt: For O=C1C=CC2(C=C1)CCNC1=C2C(=O)c2ccccc2C1=O , what call appears in the results of this test?
Response: inactive

Prompt: Fill in: this test's call for NCC(=O)Nc1ccc(Cl)cc1C(=O)c1ccc[nH]1 is ___
Response: inactive

Prompt: Please share the test call associated with COc1cccc(C2c3cc4c(cc3OC(NNc3ccccc3)C2C)OCO4)c1OC (stereo unspecified) .
Response: inactive

Prompt: Short answer needed: outcome of this test for CCC(=O)Nc1cccc(NC(=O)c2c(Cl)c(Cl)c(Cl)c(Cl)c2-c2nc3ccccc3[nH]2)c1 ?
Response: inactive

Prompt: Given N#CC1CCCCC1NC1(C#N)CCCCC1 (stereo unspecified) , state the outcome it received in this test.
Response: inactive

Prompt: What was the test verdict on COc1cc(Br)c(OC)c2c(OC)cc(C)cc12 ?
Response: inactive

Prompt: Look up the recorded call for COc1ccc(/N=C2\C(=O)C3=C(OC(C)(C)CC3)c3ccccc32)cc1 in this test.
Response: active

Prompt: Call for entry O=c1[nH]c2ccccc2nc1CBr :
Response: active

Prompt: Recorded call for CN(CCO)c1nc(=O)c2c(n1C1OC(CO)C(O)C(O)C1O)CCCC2 (stereo unspecified) ?
Response: inactive

Prompt: Hello, I am checking results. What call was entered for CSc1nc(NC2OCC(O)C(O)C2O)c(N)c(=O)[nH]1 (stereo unspecified) ?
Response: inactive

Prompt: Test call, this molecule: COc1cccc(N2C(=O)CSC2c2cc(OC)c(OC)c(OC)c2)c1 (stereo unspecified)
Response: inactive

Prompt: I'd appreciate the recorded outcome for O=C1c2ccccc2C(=O)c2c(/C=C\N3CCCCC3)ccnc21 from this test.
Response: active

Prompt: Which result was noted for this molecule in the test: Cc1ccc2cccc(-c3cccc4ccccc34)c2n1
Response: inactive

Prompt: Given O=S(=O)(Nc1nccs1)c1ccc(Nc2nc(-c3cccs3)nc3ccc(I)cc23)cc1 , state the outcome it received in this test.
Response: inactive

Prompt: What outcome does the record of this test show for CC1CN=C(N(Cc2ccccc2)C(=O)Nc2ccc(Cl)c(Cl)c2)S1 (stereo unspecified) ?
Response: inactive

Prompt: Write down the call the test reported for this molecule. Item: CC(=O)NC1=C[C@@H]([C@H]2COC(C)(C)O2)OC1=O
Response: inactive

Prompt: Entry CCC(c1ccc2cc(O)ccc2c1)C(C)(C)C(=O)O (stereo unspecified) : call = ?
Response: inactive
